The values you see were collected from paper PMC4016748.

- measured.on: HDAC8 (Homo sapiens)
- Sequence (Q9BY41 whole entry): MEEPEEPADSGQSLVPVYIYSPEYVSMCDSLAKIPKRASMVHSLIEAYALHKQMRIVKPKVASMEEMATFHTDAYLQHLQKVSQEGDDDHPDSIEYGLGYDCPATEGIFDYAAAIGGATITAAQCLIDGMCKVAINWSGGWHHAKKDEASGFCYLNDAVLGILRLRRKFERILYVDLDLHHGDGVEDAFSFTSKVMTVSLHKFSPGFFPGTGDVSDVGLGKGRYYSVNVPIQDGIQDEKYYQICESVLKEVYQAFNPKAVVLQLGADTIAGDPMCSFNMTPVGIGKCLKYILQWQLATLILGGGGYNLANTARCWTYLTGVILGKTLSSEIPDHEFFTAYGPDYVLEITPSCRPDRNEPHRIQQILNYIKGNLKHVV
pKd: −log10 of the molar value.

molecule | pKd
N | 1.89
